tested on: NCI-H23; test: NCI tumour cell line growth inhibition, 48 h
Calls of active or inactive are those of the source. Rule as the data show it: active = GI50 up to about 1.1 µM and inactive = higher.
Measured quantity: GI50

Some solved cases for reference:
>>> recorded_value("Cn1cnc([N+](=O)[O-])c1SCC(=O)O")
"> 100 µM (inactive)"
>>> recorded_value("C[n+]1c2ccc(Cl)cc2nc2cc(-c3ccccc3)ccc21")
"5.41 µM (inactive)"
>>> recorded_value("NCCCCNCCCN1CC1")
"2.57 µM (inactive)"
>>> recorded_value("COC(=O)C1CC(=O)O[C@H]1c1ccc(OC)c(OC)c1 (some centres undefined)")
"> 100 µM (inactive)"
>>> recorded_value("CCOC(=O)C(=O)C1C(=O)Nc2ccccc21 (centres undefined)")
"> 100 µM (inactive)"

Now look at this one.
Query :: // GI50 lookup, key: "Fc1ccccc1/N=c1\oc2ccc(Br)cc2cc1-c1nc2ccccc2[nH]1"
Result :: 7.33 µM (inactive)
